Cited source for all entries: ChEMBL document CHEMBL1151659

# assay.info: Partition coefficient, log P of the compound
# Type: physicochemical
# setup.conditions: octanol/water
readout.name: logP

Field: example entries. Status: answers known.
C=C1C(=O)O[C@@H]2[C@H]1CC[C@H](C)[C@]1(O)CCC(=O)[C@@]21C; 1.42
C[C@H]1C(=O)O[C@@H]2[C@H]1CC[C@H](C)[C@]1(O)C=CC(=O)[C@@]21C; 1.7
C=C1C(=O)O[C@@H]2C[C@@]3(C)CCCC(=C)[C@@H]3C[C@H]12; 3.42

I would be grateful if you could provide logP for each of the following entries.
1. C=C1C(=O)O[C@@H]2C[C@@]3(C)CCC[C@H](C)C3=C[C@H]12
2. C=C1C(=O)O[C@@H]2[C@H]1CC[C@H](C)[C@@H]1[C@H](O)CC(=O)[C@]12C
3. C=C1C(=O)O[C@@H]2[C@H]1CC[C@H](C)[C@]1(O)C=CC(=O)[C@@]21C

# output
1: 3.38; 2: 1.62; 3: 1.37
